Data origin: ChEMBL document CHEMBL1137069

# Tested on: Escherichia coli
# TEST_DESCRIPTION: Antibacterial activity against Escherichia coli was determined at 0.1 mg/mL concentration
# Format: functional

SMI	inhibition at 100 µg/mL (%)
CCOC(=O)c1cn(-c2ccc([N+](=O)[O-])cc2[N+](=O)[O-])nc1-c1ccccc1F	20
CCOC(=O)c1cn(-c2ccc([N+](=O)[O-])cc2[N+](=O)[O-])nc1C	51.1
CCOC(=O)c1cn(-c2ccc([N+](=O)[O-])cc2[N+](=O)[O-])nc1-c1ccccc1	43.3
Cc1nn(-c2ccc([N+](=O)[O-])cc2[N+](=O)[O-])cc1C(=O)OCc1ccccc1	17.8
Cc1nn(-c2ccc([N+](=O)[O-])cc2[N+](=O)[O-])cc1C(=O)OC(C)(C)C	16.7
CCOC(=O)c1cn(-c2ccc([N+](=O)[O-])cc2[N+](=O)[O-])nc1-c1ccc(Cl)cc1	0
CCOC(=O)c1nn(-c2ccc([N+](=O)[O-])cc2[N+](=O)[O-])cc1C=O	81.1
CCOC(=O)c1cn(-c2ccc([N+](=O)[O-])cc2[N+](=O)[O-])nc1CCl	17.8

###

inhibition at 100 µg/mL: recorded values
# Test system: Pseudomonas aeruginosa
# TEST_DESCRIPTION: Antibacterial activity against Pseudomonas aeruginosa was determined at 0.1 mg/mL concentration
# Assay type: functional

SMI	UNIT_SPEC	inhibition at 100 µg/mL
CCOC(=O)c1cn(-c2ccc([N+](=O)[O-])cc2[N+](=O)[O-])nc1-c1ccccc1	%	20
CCOC(=O)c1cn(-c2ccc([N+](=O)[O-])cc2[N+](=O)[O-])nc1-c1ccc(Cl)cc1	%	0
CCOC(=O)c1nn(-c2ccc([N+](=O)[O-])cc2[N+](=O)[O-])cc1C=O	%	0
CCOC(=O)c1cn(-c2ccc([N+](=O)[O-])cc2[N+](=O)[O-])nc1-c1ccccc1F	%	0
CCOC(=O)c1cn(-c2ccc([N+](=O)[O-])cc2[N+](=O)[O-])nc1CCl	%	0
CCOC(=O)c1cn(-c2ccc([N+](=O)[O-])cc2[N+](=O)[O-])nc1C	%	0
Cc1nn(-c2ccc([N+](=O)[O-])cc2[N+](=O)[O-])cc1C(=O)OC(C)(C)C	%	0
Cc1nn(-c2ccc([N+](=O)[O-])cc2[N+](=O)[O-])cc1C(=O)OCc1ccccc1	%	18.9
